assay: in vivo; conditions: female, beagle, dog, po, 40 mg/kg
Below, each of the compounds is paired with its reported AUC0-t value.
Reply with just the number (in ng·h/mL).

Summary for this compound, `CC(C)C[C@H](NC(=O)c1cc2ccccc2[nH]1)C(=O)N[C@H](C=O)C[C@@H]1CCNC1=O` : AUC0-t is 36700

Summary for this compound, CC(C)C[C@H](NC(=O)c1cc2ccccc2[nH]1)C(=O)N[C@@H](C[C@@H]1CCNC1=O)C(O)S(=O)(=O)[O-].[Na+] (some centres unmarked) : AUC0-t is 95900

* * *

settings: mouse oral PK, female Balb/c, 40 mg/kg single dose, plasma
Below, each of the molecules is paired with its reported Cmax value.
Reply with just the number (in ng/mL).

// solved cases for Cmax follow
CC(C)C[C@H](NC(=O)C1CC1)C(=O)N1C[C@H]2[C@@H]([C@H]1C(=O)N[C@H](C#N)C[C@@H]1CCNC1=O)C2(C)C :: 32.1
CC(C)(C)[C@H](NC(=O)C(F)(F)F)C(=O)N1C[C@H]2[C@@H]([C@H]1C(=O)N[C@@H](C[C@@H]1CCNC1=O)C(=O)CO)C2(C)C :: 410
CC(C)C[C@H](NC(=O)c1cc2ccccc2[nH]1)C(=O)N1C[C@H]2[C@@H]([C@H]1C(=O)N[C@H](C=O)C[C@@H]1CCNC1=O)C2(C)C :: 13.3
Cc1cccc2[nH]c(C(=O)N[C@@H](CC(C)C)C(=O)N[C@@H](C[C@@H]3CCNC3=O)C(=O)CO)cc12 :: 52

# context switch: different molecule, same Cmax
Summary for this molecule, `CC(C)C[C@H](NC(=O)c1cc2ccccc2[nH]1)C(=O)N1C[C@H]2[C@@H]([C@H]1C(=O)N[C@H](C#N)C(C)(C)C)C2(C)C` : Cmax is 169
